Measurement Notes: Viability qHTS for spleen associated tyrosine kinase inhibitor (SYKi) naive MV4-11 cells (AID 1963823); further: nearly all actives have a fitted effect of over 40% in size
Measurement Context: MV4-11 AML viability, CellTiter-Glo luminescence, 72 h; series mostly up to 45 µM
Inconclusive results are not listed. Active and inactive are the calls of the source. The call rests on the fitted dose curve; in most records, active means well fitted cell-killing curve with a large enough effect; inconclusive means small, poorly fitted or top-dose-only effect, or effect the other way; inactive means no such curve, though single readings can be large or run the other way.
Classes to choose from: yes (active), no (inactive)

Compound: OC[C@H]1O[C@@H](O[C@@H]2[C@@H](CO)O[C@](O)(CO)[C@H]2O)[C@H](O)[C@@H](O)[C@H]1O
Class Name: no

Compound: CC(C)O[C@@H]1O[C@H](CO)[C@@H](O)[C@H](O)[C@H]1O
Class Name: no

Compound: CC1(C)CC[C@]2(C(=O)O[C@@H]3O[C@H](CO)[C@@H](O)[C@H](O)[C@H]3O)CC[C@]3(C)C(=CCC4[C@@]5(C)C[C@@H](O)[C@H](O)[C@](C)(C(=O)O)C5CC[C@]43C)C2C1O (some centres undefined)
Class Name: no

Compound: O=C(O)[C@H](CC(=O)N1C[C@H]2CCCC[C@H]2C1)Cc1ccccc1
Class Name: no

Compound: C/C=C(/COC(=O)/C(C)=C/C)C(=O)OC(CC)c1ccc(OC)c(OC)c1 (centres undefined)
Class Name: no

Compound: O=C(CCCCCCNC(=O)c1cnc(N(c2ccccc2)c2ccccc2)nc1)NO
Class Name: yes

For this compound, state the assay outcome: `COc1cc(Cc2cnc(N)nc2N)cc(OC)c1OC` no

What classification did CC(C)C1=CCC(C)(O)C(OC2OC(CO)C(O)C(O)C2O)C1 (centres undefined) end up with in this test? no

// param item: `Brc1c(NC2=NCCN2)ccc2nccnc12` ; yields the recorded call no

Values compiled from PubChem BioAssay (NCATS).
